# subjectOfTest: GDP-bound KRAS wild-type protein (Homo sapiens, UniProt P01116)
# Sequence (P01116 whole entry): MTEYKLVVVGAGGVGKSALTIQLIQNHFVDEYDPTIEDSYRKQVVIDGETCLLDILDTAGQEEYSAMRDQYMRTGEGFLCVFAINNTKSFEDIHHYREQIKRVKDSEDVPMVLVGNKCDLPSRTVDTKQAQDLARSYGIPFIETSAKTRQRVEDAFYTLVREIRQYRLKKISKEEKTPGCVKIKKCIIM
# method: Binding to KRAS by surface plasmon resonance (SPR), Single Cycle Kinetics
# conditionLabel: SPR Single Cycle Kinetics, GDP-bound KRAS wild-type protein, 1:1 binding model; read-out: KRAS KD
Where a SMILES comes first, the peptide text is derived from it. Bridges are numbered along the chain shown (N, C = ends). [ ]: non-standard residue; d: D form. The star is where a group is joined. hPhe(3-Cl-4-CF3) = N[C@@H](CCc1ccc(C(F)(F)F)c(Cl)c1)C(=O)O; NPrPhe(4-CF3) = CCCN[C@@H](Cc1ccc(C(F)(F)F)cc1)C(=O)O; NMeGly(cPent) = CN[C@H](C(=O)O)C1CCCC1; Hyp = O=C(O)[C@@H]1C[C@@H](O)CN1; NMeL = CN[C@@H](CC(C)C)C(=O)O; Morpholide = C1CN(*)CCO1; Ac5c = NC1(C(=O)O)CCCC1; NEtG = CCNCC(=O)O; Sar = CNCC(=O)O
measuredAttribute: pKd
In plain terms, pKd is the concentration in mol/L turned into minus its base-10 logarithm.

QUERY: Please report the recorded pKd for CCCN1C(=O)CN(C)C(=O)CN(CC)C(=O)[C@H]([C@@H](C)CC)NC(=O)[C@H](CC(C)C)N(C)C(=O)C[C@@H](C(=O)N2CCOCC2)NC(=O)[C@H](C2CCCC2)N(C)C(=O)C2(CCCC2)NC(=O)[C@@H]2C[C@@H](OCC)CN2C(=O)[C@H](CCc2ccc(C(F)(F)F)c(Cl)c2)NC(=O)CN(C)C(=O)[C@@H]1Cc1ccc(C(F)(F)F)cc1 [PP0335] ([NMeL]I[NEtG][Sar][NPrPhe(4-CF3)][Sar][hPhe(3-Cl-4-CF3)][Hyp](Et)[Ac5c][NMeGly(cPent)]D-Morpholide; lactam N-11) .
RESULT: 8.89

----------
# pKd per entry
# subjectOfTest: GDP-bound KRAS wild-type protein (Homo sapiens, UniProt P01116)
# method: Binding to KRAS by surface plasmon resonance (SPR), Single Cycle Kinetics
# conditionLabel: SPR Single Cycle Kinetics, GDP-bound KRAS wild-type protein, 1:1 binding model; read-out: KRAS KD
Where a SMILES comes first, the peptide text is derived from it. Bridges are numbered along the chain shown (N, C = ends). [ ]: non-standard residue; d: D form. hPhe(3-Cl-4-CF3) = N[C@@H](CCc1ccc(C(F)(F)F)c(Cl)c1)C(=O)O; NPrPhe(4-CF3) = CCCN[C@@H](Cc1ccc(C(F)(F)F)cc1)C(=O)O; NMeGly(cPent) = CN[C@H](C(=O)O)C1CCCC1; NMeL = CN[C@@H](CC(C)C)C(=O)O; NMeA = CN[C@@H](C)C(=O)O; Aze = O=C(O)[C@@H]1CCN1; Ac4c = NC1(C(=O)O)CCC1; Sar = CNCC(=O)O
Please note pKd is a logarithmic value: minus log10 of concentration in mol/L. Answer with that number alone.

[
  {
    "molecule": "CCCN1C(=O)[C@@H]2CCN2C(=O)[C@H](C)N(C)C(=O)[C@H]([C@@H](C)CC)NC(=O)[C@H](CC(C)C)N(C)C(=O)C[C@@H](C(=O)N(C)C)NC(=O)[C@H](C2CCCC2)N(C)C(=O)C2(CCC2)NC(=O)[C@@H]2CCCN2C(=O)[C@H](CCc2ccc(C(F)(F)F)c(Cl)c2)NC(=O)CN(C)C(=O)[C@@H]1Cc1ccc(C(F)(F)F)cc1 [PP0380] ([NMeL]I[NMeA][Aze][NPrPhe(4-CF3)][Sar][hPhe(3-Cl-4-CF3)]P[Ac4c][NMeGly(cPent)]D-NMe2; lactam N-11)",
    "measuredAttribute": "pKd",
    "resultValue": 9.23
  }
]

Query molecule follows.
QUERY: Record CC[C@H](C)[C@@H]1NC(=O)[C@H](CC(C)C)N(C)C(=O)C[C@@H](C(=O)N(C)C)N(C)C(=O)[C@H](C2CCCC2)N(C)C(=O)C2(CCCC2)NC(=O)[C@@H]2CC(F)(F)CN2C(=O)[C@H](CCc2cc(F)c(C(F)(F)F)c(F)c2)NC(=O)CN(C)C(=O)[C@H](Cc2ccc(C(F)(F)F)cc2)N2CCCC[C@@H](C2=O)N(C)C(=O)CN(C)C1=O : what is its pKd with GDP-bound KRAS wild-type protein (Homo sapiens, UniProt P01116)?
RESULT: 10.72
